target system: UniProt P50406
Sequence (P50406 whole entry): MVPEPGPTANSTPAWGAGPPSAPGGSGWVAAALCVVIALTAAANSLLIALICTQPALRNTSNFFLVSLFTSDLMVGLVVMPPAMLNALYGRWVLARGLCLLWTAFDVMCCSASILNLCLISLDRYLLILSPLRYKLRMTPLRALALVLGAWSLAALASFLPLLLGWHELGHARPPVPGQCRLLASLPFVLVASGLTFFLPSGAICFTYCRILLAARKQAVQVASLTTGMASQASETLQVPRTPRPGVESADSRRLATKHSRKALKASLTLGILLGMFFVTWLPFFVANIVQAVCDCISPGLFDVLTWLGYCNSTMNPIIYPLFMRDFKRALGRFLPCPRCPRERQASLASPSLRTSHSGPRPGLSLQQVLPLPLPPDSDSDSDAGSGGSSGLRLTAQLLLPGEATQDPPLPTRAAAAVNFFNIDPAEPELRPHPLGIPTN
experiment notes: Displacement of [3H]LSD from human recombinant 5HT6 receptor
property label: pKi
// pKi: -log10(molar conc.)

Asked: Any idea what pKi was measured for O=S(=O)(c1ccc(F)cc1)c1ccc2c(c1)O[C@H]1CNCC[C@@H]21 (racemic) ?
Given back: 6.41

Asked: Ok, now O=S(=O)(c1cccc(F)c1)c1ccc2c(c1)O[C@H]1CNCC[C@@H]21 (racemic)
Given back: 7.68

Asked: Ok, now O=S(=O)(c1cc(F)cc(Cl)c1)c1ccc2c(c1)O[C@H]1CNCC[C@@H]21 (single isomer, unassigned; enantiomer 2)
Given back: 7.96

Asked: Ok, now O=S(=O)(c1ccc2c(c1)O[C@H]1CNCC[C@@H]21)c1cccc(Cl)c1Cl (single isomer, unassigned; enantiomer 2)
Given back: 8.70

Asked: Ok, now Cc1cccc(S(=O)(=O)c2ccc3c(c2)O[C@H]2CNCC[C@@H]32)c1 (racemic)
Given back: 7.43

Asked: Ok, now O=S(=O)(c1cc(F)cc(Cl)c1)c1ccc2c(c1)O[C@H]1CNCC[C@@H]21 (single isomer, unassigned; enantiomer 1)
Given back: 7.17

Asked: Ok, now O=S(=O)(c1ccc2c(c1)O[C@H]1CNCC[C@@H]21)c1ccccc1Cl (racemic)
Given back: 7.42

Asked: Ok, now O=S(=O)(c1ccc2c(c1)O[C@H]1CNCC[C@@H]21)c1ccccc1F (racemic)
Given back: 7.49

Asked: Ok, now CC(C)Oc1cccc(S(=O)(=O)c2ccc3c(c2)O[C@H]2CNCC[C@@H]32)c1.Cl (single isomer, unassigned; enantiomer 1)
Given back: 7.77

Asked: Ok, now CC(C)Oc1cccc(S(=O)(=O)c2ccc3c(c2)O[C@H]2CNCC[C@@H]32)c1F (single isomer, unassigned; enantiomer 1)
Given back: 7.25

Asked: Ok, now Cc1ccc(S(=O)(=O)c2ccc3c(c2)O[C@H]2CNCC[C@@H]32)cc1 (racemic)
Given back: 7.19

Asked: Ok, now CC(C)Oc1cc(F)cc(S(=O)(=O)c2ccc3c(c2)O[C@H]2CNCC[C@@H]32)c1 (single isomer, unassigned; enantiomer 2)
Given back: 7.19

Asked: Ok, now O=S(=O)(c1cc(F)cc(F)c1)c1ccc2c(c1)O[C@H]1CNCC[C@@H]21 (single isomer, unassigned; enantiomer 2)
Given back: 7.55

Asked: Ok, now `Cl.O=S(=O)(c1ccccc1)c1ccc2c3c(oc2c1)CNCC3`
Given back: 8.54

Asked: Ok, now O=S(=O)(c1ccc2c(c1)O[C@H]1CNCC[C@@H]21)c1cccc(Cl)c1Cl (single isomer, unassigned; enantiomer 1)
Given back: 8.30

Asked: Ok, now COc1cc(OC(C)C)cc(S(=O)(=O)c2ccc3c(c2)O[C@H]2CNCC[C@@H]32)c1.Cl (single isomer, unassigned; enantiomer 1)
Given back: 8.40

Asked: Ok, now COCCCOc1cccc(S(=O)(=O)c2ccc3c(c2)O[C@H]2CNCC[C@@H]32)c1 (racemic)
Given back: 6.69

Asked: Ok, now COc1cccc(S(=O)(=O)c2ccc3c(c2)O[C@H]2CNCC[C@@H]32)c1 (racemic)
Given back: 7.07

Asked: Ok, now O=S(=O)(c1cc(F)cc(F)c1)c1ccc2c(c1)O[C@H]1CNCC[C@@H]21 (single isomer, unassigned; enantiomer 1)
Given back: 6.78

Asked: Ok, now Cl.O=S(=O)(c1cccc(F)c1)c1ccc2c(c1)O[C@H]1CNCC[C@@H]21 (single isomer, unassigned; enantiomer 1)
Given back: 7.96

Asked: Ok, now CC(C)Oc1cccc(S(=O)(=O)c2ccc3c(c2)O[C@H]2CNCC[C@@H]32)c1 (racemic)
Given back: 7.64

Asked: Ok, now O=S(=O)(c1cccc(C(F)(F)F)c1)c1ccc2c(c1)O[C@H]1CNCC[C@@H]21 (racemic)
Given back: 7.32

Asked: Ok, now O=S(=O)(c1cccc(Cl)c1)c1ccc2c(c1)O[C@H]1CNCC[C@@H]21 (racemic)
Given back: 7.96

Asked: Ok, now Cl.O=S(=O)(c1cccc(F)c1)c1ccc2c(c1)O[C@H]1CNCC[C@@H]21 (single isomer, unassigned; enantiomer 2)
Given back: 7.07

Asked: Ok, now COCCOc1cccc(S(=O)(=O)c2ccc3c(c2)O[C@H]2CNCC[C@@H]32)c1 (racemic)
Given back: 6.25

Asked: Ok, now O=S(=O)(c1ccc2c(c1)O[C@H]1CNCC[C@@H]21)c1ccccc1-c1ccccc1 (racemic)
Given back: 7.82

Asked: Ok, now COc1cc(OC(C)C)cc(S(=O)(=O)c2ccc3c(c2)O[C@H]2CNCC[C@@H]32)c1.Cl (single isomer, unassigned; enantiomer 2)
Given back: 7.92

Asked: Ok, now Cl.O=S(=O)(c1ccccc1)c1ccc2c(c1)O[C@H]1CNCC[C@@H]21 (racemic)
Given back: 7.08
